Target Or System: Csm2 (wild type);Psy3 (wild type) (Saccharomyces cerevisiae;Saccharomyces cerevisiae) (UniProt P40465+Q12318)
Sequence 1: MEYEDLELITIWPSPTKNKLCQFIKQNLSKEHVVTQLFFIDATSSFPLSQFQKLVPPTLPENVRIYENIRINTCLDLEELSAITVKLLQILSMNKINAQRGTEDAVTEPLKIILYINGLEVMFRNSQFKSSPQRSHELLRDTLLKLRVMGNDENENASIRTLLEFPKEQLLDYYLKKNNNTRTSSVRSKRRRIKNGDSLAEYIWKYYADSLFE
Sequence 2: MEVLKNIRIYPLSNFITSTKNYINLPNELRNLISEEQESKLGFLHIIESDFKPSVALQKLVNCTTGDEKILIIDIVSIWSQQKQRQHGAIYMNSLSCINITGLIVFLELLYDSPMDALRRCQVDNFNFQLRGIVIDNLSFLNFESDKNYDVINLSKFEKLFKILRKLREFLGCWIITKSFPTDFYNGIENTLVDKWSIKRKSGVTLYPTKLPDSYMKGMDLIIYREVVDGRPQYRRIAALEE
Test Method Notes: fluorescence anisotropy
Measurement Conditions: heparin preparation; N10 of strand 1 = THF abasic analog (in dsDNA); Anisotropy: 20 mM Tris pH 8.0, 20-25 nM DNA (2.5-5 nM in Fig 4d), protein titrated from 1 M NaCl stock; EMSA: 25 mM Tris-HCl pH 8.0, 50 mM NaCl, 1 mM DTT …
Readout Name: Kd (nM)

>  <Item Sequence>
CAGTGCCGANGCTTGTCAAGTTTTTTTTTTTTTTTTTTTT / TTTTTTTTTTTTTTTTTTTTCTTGACAAGCTTGCGCACTG [AP8 double-flap]

>  <Readout Name>
Kd

>  <Unit Text>
nM

>  <Recorded Value>
153

$$$$

====

Target Or System: Csm2 (wild type);Psy3 (wild type) (Saccharomyces cerevisiae;Saccharomyces cerevisiae) (UniProt P40465+Q12318)
Sequence 1: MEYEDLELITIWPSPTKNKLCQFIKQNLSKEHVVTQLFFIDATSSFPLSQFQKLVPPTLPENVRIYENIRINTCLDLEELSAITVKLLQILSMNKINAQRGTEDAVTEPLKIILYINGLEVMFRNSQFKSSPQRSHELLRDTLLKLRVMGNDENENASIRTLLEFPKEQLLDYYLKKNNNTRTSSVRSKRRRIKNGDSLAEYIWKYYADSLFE
Sequence 2: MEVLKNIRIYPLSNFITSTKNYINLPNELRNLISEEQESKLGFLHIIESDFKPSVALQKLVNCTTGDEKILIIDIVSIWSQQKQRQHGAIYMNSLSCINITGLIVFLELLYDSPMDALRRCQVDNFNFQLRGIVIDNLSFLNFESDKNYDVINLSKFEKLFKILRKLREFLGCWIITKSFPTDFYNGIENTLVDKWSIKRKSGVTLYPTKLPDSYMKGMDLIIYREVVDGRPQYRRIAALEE
Test Method Notes: fluorescence anisotropy
Measurement Conditions: heparin preparation; N20 of strand 1 = THF abasic analog; Anisotropy: 20 mM Tris pH 8.0, 20-25 nM DNA (2.5-5 nM in Fig 4d), protein titrated from 1 M NaCl …; EMSA: 25 mM Tris-HCl pH 8.0, 50 mM NaCl, 1 mM DTT, 100 u
Recorded Kd by entry

>  <Item Sequence>
TTTTTTTTTTTTTTTTTTTNCTTGACAAGCTTGCGCACTG / CAGTGCGCAAGCTTGTCAAGTTTTTTTTTTTTTTTTTTTT [AP2 double-flap]

>  <Kd (nM)>
127

$$$$
>  <Item Sequence>
CAGTGCCGAAGCTTGTCAANTTTTTTTTTTTTTTTTTTTT / TTTTTTTTTTTTTTTTTTTTCTTGACAAGCTTGCGCACTG [AP7 double-flap]

>  <Kd (nM)>
112

$$$$
